Test system: HIPK1;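 further: KINOMEscan kinase panel screen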
Condition Parameters: concentration: 1 μM, replicates: in singlicate; n = 1
Attribute Measured: %Inh (%)
Expressed in %, but write only the number.

Q. GET /values?readout=%Inh&item= "CNc1nc(-c2ccc3c(N)n[nH]c3c2)cc(N2C[C@@H](C(=O)Nc3ccccc3)CC[C@H]2C)n1"
A. 0

Q. Which value of %Inh has been reported for "Cc1ccccc1-c1cc(-c2c[nH]nc2-c2ccccn2)ccn1" in the records?
A. 4

Q. # input compound: "O=C(Nc1n[nH]c2cc(-c3ccsc3)ccc12)C1CC1" ; wanted: its %Inh
A. 7

Q. Quick one: %Inh for "CSc1ccc(-c2nc3n(c2-c2ccncc2)CCC3)cc1" ?
A. 0

Q. Which measured %Inh value corresponds to "CN1c2ccc(-c3ccc(C(N)=O)cc3)cc2-c2[nH]ncc2S1(=O)=O" ?
A. 41

Q. Request the reported %Inh associated with "COc1cc2ncnc(Nc3cccc(Br)c3)c2cc1OC.Cl"
A. 0

Q. Request the reported %Inh associated with "Cc1cnc(N)c(/C=C/c2cncc(C(=O)NCCc3ccc(Cl)cc3Cl)c2)c1.Cl"
A. 0

Q. # query: %Inh of entry "O=C1NC(=O)C(c2ccc(Cl)cc2)=C1Nc1ccc(O)cc1"
A. 0

Q. Sample "O=C1NC(=O)C(c2ccc(Cl)cc2)=C1Nc1cccc(Cl)c1" — what was its %Inh?
A. 19

Q. Entry "COc1ccc(Nc2nccc(-c3ccc(NC(=O)c4cc5cc(F)ccc5[nH]4)cc3)n2)cc1" : reported %Inh = ?
A. 0

Q. # query: %Inh of entry "NS(=O)(=O)c1cccc(N/C=C2\C(=O)Nc3ccc(S(=O)(=O)Cc4c(Cl)cccc4Cl)cc32)c1"
A. 0

Q. Item "Cc1nccc(-c2c(-c3ccc(F)cc3)ncn2CCCN2CCOCC2)n1.Cl" has what recorded %Inh?
A. 0

Q. I have this compound here, Cn1cncc1C(=O)NC1CCN(c2ccnc(Nc3ccc(F)cc3)n2)C1 (stereo not drawn) , and I need its recorded %Inh.
A. 0

Q. # %Inh lookup, item COC(=O)c1cccc(NC(=O)NC2CCN(c3ccnc(Nc4ccc(OC)cc4)n3)C2)c1 (stereo not drawn)
A. 0

Q. Need %Inh, item "Nc1nccc(-c2c(-c3ccc(F)cc3)ncn2C2CCN(Cc3ccccc3)CC2)n1"
A. 0

Q. Report %Inh for "CNc1cc(-c2ccc3c(N)n[nH]c3c2)nc(N)n1" please.
A. 14

Q. Reported %Inh for COC(=O)c1cccc(NC(=O)NC2CCN(c3ccnc(Nc4ccc(F)cc4)n3)C2)c1 (stereo not drawn) : what is it?
A. 0

Q. Please give the measured %Inh for this compound: "CS(=O)(=O)CCNCc1nc(-c2ccc3ncnc(Nc4ccc5c(cnn5Cc5ccccc5)c4)c3c2)cs1.Cl.Cl"
A. 0
